Biological target: NDM-1 (Klebsiella pneumoniae, UniProt C7C422)
Sequence (C7C422 29-270, looked up, species assumed): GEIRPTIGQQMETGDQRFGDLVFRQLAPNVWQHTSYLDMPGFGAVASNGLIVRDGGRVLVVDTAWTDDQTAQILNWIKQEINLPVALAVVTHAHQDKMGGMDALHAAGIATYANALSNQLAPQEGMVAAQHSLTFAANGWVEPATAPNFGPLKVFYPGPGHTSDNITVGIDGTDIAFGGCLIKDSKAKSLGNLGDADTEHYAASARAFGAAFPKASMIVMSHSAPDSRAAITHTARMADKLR
Assay: biochemical
Assay type: biochemical
Conditions: tested up to 200 μM
reported.endpoint: inhibition of NDM-1, in words

Example cases with answers are listed next.
>>> result("O=C(O)c1ccc2ccccc2n1")
"modest inhibition"
>>> result("O=C(O)c1cc2ccccc2cn1")
"modest inhibition"
>>> result("O=C(O)c1cnccn1")
"no detectable inhibition"
>>> result("Cn1cnc(C(=O)O)c1")
"no detectable inhibition"

Proceed to the following item.
**Q:** For O=C(O)c1cccnn1 , write its inhibition of NDM-1, in words.
**A:** no detectable inhibition

* * *

Biological target: NDM-1 (Klebsiella pneumoniae, UniProt C7C422)
Test: biochemical
Type: biochemical
Settings: 300 μM imipenem, 10 mM HEPES pH 7.5, 25 °C; average of at least two independent assays; read-out: NDM-1 IC50
Below: a set of entries, each annotated with reported IC50.
Express your answer in µM, writing the number without its unit.

Would you please look over these solved cases?
>>> measured_number("O=C(O)c1ncccc1NS(=O)(=O)Cc1ccccc1Cl [Compound 39]")
32.6
>>> measured_number("O=C(O)c1ncccc1NS(=O)(=O)c1ccc(F)cc1 [Compound 35]")
52.1
>>> measured_number("O=C(O)c1cc(NS(=O)(=O)Cc2ccccc2)ccn1 [Compound 54]")
65
>>> measured_number("O=C(Cc1cccs1)Nc1ccnc(C(=O)O)c1 [Compound 53]")
43
>>> measured_number("O=C(O)c1ncccc1NS(=O)(=O)Cc1ccc([N+](=O)[O-])cc1 [Compound 44]")
120

**Q:** Dear colleague, please send me the reported IC50 for O=C(Cc1ccc(F)cc1)Nc1ccc(C(=O)O)nc1 [Compound 57] when you can.
**A:** 27.9
